test: Encapsulation efficiency, RiboGreen RNA assay (Method A); format: physicochemical; conditions: LNP formulated by Method A
readout.label: EE (%)

>>> observed_value("CCCCCCCCO[Si](C)(C)OC(CCCCCCC)OCCCCCCN(CCCCO)CCCCCCOC(=O)C(CCCCCC)CCCCCCCC (stereo not drawn)")
95
>>> observed_value("CC/C=C\\C/C=C\\C/C=C\\C/C=C\\C/C=C\\CCCCN(CCCCO)CCCCCC(OCCCCCCCC)O[Si](C)(C)CCCCCCCC (stereo not drawn)")
96
>>> observed_value("CCCCCCCCCC(OCCCCCCN(CCCCO)CCCCCCOC(CCCCCCCCC)O[Si](C)(C)CCCCCC)O[Si](C)(C)CCCCCC (stereo not drawn)")
96
>>> observed_value("CC/C=C\\C/C=C\\C/C=C\\C/C=C\\C/C=C\\CCCCN(CCCCO)CCCCCC[Si](C)(C)OC(CCCCCCC)OCCCCCCCC (stereo not drawn)")
97
>>> observed_value("CCCCCCCCO[Si](C)(C)O[Si](C)(C)OC(CCCCCCC)OCCCCCCN(CCCCO)CCC[C@@H](C)C1CCC2C3CCC4C[C@H](OC)CC[C@]4(C)C3CC[C@@]21C (stereo partly drawn)")
96
>>> observed_value("CCCCCCCCO[Si](C)(C)OC(CCCCCCC)OCCCCCCN(CCCCCCOC(CCCCCCC)O[Si](C)(C)OCCCCCCCC)CCC1CCCN1C (stereo not drawn)")
98
